Assay remarks: DUSP6 inhibitors restoring Erk phosphorylation by chemical complementation, primary imaging in DUSP6-transfected HeLa (AID 609)
Experimental parameters: HeLa MKP-3 transfected, phospho-Erk imaging KS statistic; measured here: nuclear pErk red intensity z-score; at 10 µM; stronger effect = higher value; cells stimulated with TPA for 15 min
The threshold is inclusive: z-score of exactly -0.9 counts as met; values below receive not met.

{"columns": ["Molecule", "Discrete label"],
 "data": [
  ["CCN(CC)CCN1C(=O)C(O)=C(C(C)=O)C1c1ccc(OC)c(OC)c1 (stereo not drawn)", "met"],
  ["Cc1cccn2c(=O)c3cc(C(N)=S)c(=N)n(CCCOC(C)C)c3nc12", "not met"],
  ["Cc1ccc(CNC(=O)c2cc3c(=O)n4ccccc4nc3n(CC3CCCO3)c2=N)cc1 (stereo not drawn)", "not met"],
  ["CCCCc1cc(=O)oc2c(CN3CCCC3)c(O)ccc12", "met"],
  ["CN1CCc2c(c3c(n2C)CCN(C)[C@@H]3c2cccnc2)[C@H]1c1cccnc1", "met"],
  ["CC12CN3CC(C)(CN(C1)C3c1ccc(Cl)cc1Cl)C2O (stereo not drawn)", "not met"],
  ["COC(=O)NC(Nc1sc2c(c1C(N)=O)CCCC2)(C(=O)OC)C(F)(F)F (stereo not drawn)", "met"],
  ["O=C(C(c1ccccc1)N1CCOCC1)N1CCOCC1 (stereo not drawn)", "met"],
  ["CCN(CC)CCNc1ncnc2c1[nH]c1ccc(OC)cc12", "not met"],
  ["CCC(=O)Nc1nc2ccccc2n1Cc1ccccc1C", "met"],
  ["Cc1ccc(CNc2oc(COc3ccccc3Cl)nc2C#N)cc1", "not met"],
  ["CCN(CC)CCCN1C(=O)C(=O)/C(=C(/O)c2ccc(OC)cc2)C1c1ccco1 (stereo not drawn)", "met"],
  ["CC(Sc1ccc2ccccc2n1)C(=O)O (stereo not drawn)", "met"],
  ["C=CCN1C(=O)CC(C(=O)NC)SC1=Nc1ccc(C(=O)OCC)cc1 (stereo not drawn)", "met"],
  ["O=C(CC(c1ccc(F)cc1)c1ccco1)N1CCCC1 (stereo not drawn)", "met"],
  ["Cc1cccc(-c2nc(C#N)c(NC3CCCCC3)o2)c1", "met"],
  ["COc1cc(N2CCCC2)c(OC)cc1/C=c1/sc2nc3ccccc3n2c1=O", "met"],
  ["CCC1SC2=NC(C)=C(C(=O)OCCOC)C(c3ccc(C(=O)OC)cc3)N2C1=O (stereo not drawn)", "met"],
  ["COc1cccc(C(=O)N2CCN(Cc3ccccn3)CC2)c1OC", "met"],
  ["O=S(=O)(N[C@@H]1C[C@H]2CC[C@@H]1C2)c1cccs1", "met"],
  ["Cc1cc2ccccc2cc(C)c1=O", "not met"],
  ["COc1ccc(Nc2nnc(C)c3ccccc23)cc1C(N)=O", "met"]
]}

----------
Assay remarks: inhibitors of TNFa-induced NFkB p65 translocation, primary screen, imaging, HUVEC, MLSMR starter and 10KST1 sets (AID 438);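 further: compound added about 3h40 before a 20 min TNFalpha stimulation; signal is the nuclear over cytoplasmic p65 intensity ratio per well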
Experimental parameters: HUVEC TNFa-induced p65 nuclear translocation; at 2 µM, stronger effect = higher value, 0% TNFa-plus-vehicle, 100% no-TNFa wells

{"columns": ["Compound", "inhibition, %"],
 "data": [
  ["O=C(Sc1nnnn1C1CCCCC1)c1cccs1", 13.8],
  ["CC(=O)Nc1ccc(NCC(O)COc2ccccc2)cc1 (stereo not drawn)", 6.4],
  ["COc1cc(C2c3c(oc4c(C)cc(C)cc4c3=O)C(=O)N2Cc2cccnc2)ccc1O (stereo not drawn)", -2.7],
  ["c1ccc(-n2ncc3c(NCC4CCCO4)ncnc32)cc1 (stereo not drawn)", -4],
  ["Cc1cccc(-c2nnc3n2N=C(c2ccc(Br)cc2)CS3)c1", -2.9],
  ["CCN(Cc1nc2ccccc2c(=O)[nH]1)Cc1cc(=O)oc2cc(C)c(C)cc12", 6.6],
  ["CCN(CCCNC(=O)CC1Oc2ccc(C)cc2NC1=O)Cc1ccccc1 (stereo not drawn)", 5.1],
  ["CCOC(=O)C1=C(C)NC(C)=C(C(=O)OCC)C1C(=O)OC1CCOC1=O (stereo not drawn)", -4.7],
  ["CCCn1nc(CC(=O)O)c2ccccc2c1=O", -12.3],
  ["CCC(C)NC(=O)C1(C)CCC(=O)N1CCc1ccc(OC)c(OC)c1 (stereo not drawn)", -5.7],
  ["Cc1cc(C)n(-c2nc3c(c(=O)[nH]c(=O)n3C)n2Cc2ccc(F)cc2)n1", 1.3],
  ["Cc1cccnc1-n1c(CCN2C(=O)c3ccccc3C2=O)nc2ccccc2c1=O", -5.4],
  ["O=S(=O)(NC1CCCC1)c1ccccc1Cl", -7.3],
  ["CC1NC(=O)NC1CCCCCC(=O)NCCc1ccccc1 (stereo not drawn)", 7.3],
  ["O=C1CC(c2ccccc2)n2nc(NC(=O)c3ccccn3)nc2N1 (stereo not drawn)", 3.3],
  ["Clc1ccc(-n2ncc3c(N4CCCC4)ncnc32)cc1", -9.4],
  ["CCN(CC)CCN1C(=O)C(=O)/C(=C(/O)c2ccc(OC)cc2)C1c1ccco1 (stereo not drawn)", -1.4],
  ["NC(=O)C1CCN(CCC(=O)Nc2ccc(Br)cc2)CC1", -14.3],
  ["N#Cc1ccccc1NC(=O)CSc1nnc(-c2ccccc2)n1-c1ccccc1", -25.3],
  ["Cn1ncc(N=Cc2c(O)ccc3ccccc23)c1C(=O)N1CCOCC1", -2.5],
  ["O=P(O)(CN1CCCCCC1)CN1CCCCCC1", 13.9],
  ["COc1ccccc1N1CCN(C(=O)c2c(-c3c(Cl)cccc3Cl)noc2C)CC1", -11.7],
  ["COc1ccc(C2C(C#N)=C(C)NC3=C2C(=O)c2ccccc23)cc1 (stereo not drawn)", 0.7]
]}

----------
Test target: Muscarinic acetylcholine receptor M4 (Homo sapiens) (UniProt P08173)
Sequence (P08173 whole entry, looked up): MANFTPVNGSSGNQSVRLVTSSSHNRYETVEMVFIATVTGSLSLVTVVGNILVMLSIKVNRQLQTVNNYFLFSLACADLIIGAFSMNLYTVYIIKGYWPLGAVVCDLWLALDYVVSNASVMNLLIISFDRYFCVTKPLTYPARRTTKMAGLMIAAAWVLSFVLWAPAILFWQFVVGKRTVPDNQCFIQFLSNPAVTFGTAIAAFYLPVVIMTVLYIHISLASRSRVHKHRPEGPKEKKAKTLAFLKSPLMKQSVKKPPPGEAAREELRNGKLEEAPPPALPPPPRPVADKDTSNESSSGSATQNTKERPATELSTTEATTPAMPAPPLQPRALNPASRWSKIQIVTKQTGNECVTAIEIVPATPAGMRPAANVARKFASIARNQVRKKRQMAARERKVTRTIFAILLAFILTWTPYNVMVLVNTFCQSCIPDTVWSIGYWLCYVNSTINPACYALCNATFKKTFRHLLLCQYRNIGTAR
Assay remarks: compounds altering M4/GIRK thallium flux, either direction, primary screen, M4 allosteric agonist project, cell-based, HEK293 M4/GIRK, BTC-AM (AID 625);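 further: thallium influx through GIRK channels coupled to M4 in HEK293 cells with BTC-AM dye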
Experimental parameters: at 10 µM, actives lie on both sides

{"columns": ["Molecule", "fluorescence slope"],
 "data": [
  ["CCC(CC)c1nc2cc(OC)c(OC)cc2c(=O)o1", 0.00503],
  ["CN(Cc1ccccc1)c1ncnc2ccc(Br)cc12", 0.00669],
  ["Cc1ccc(C(=O)NCCCNCCCNC(=O)c2ccc(C)nc2)cn1", 0.00476],
  ["Cn1c(=O)c2c(nc(NCCCO)n2Cc2cccc(C(F)(F)F)c2)n(C)c1=O", 0.00722],
  ["Cc1cc2nncn2c(Cc2ccccc2)n1", 0.00485],
  ["COc1ccc(C2CC(c3ccc(C)cc3)Nc3nc(N)nn32)cc1 (stereo unspecified)", 0.00548]
]}

----------
Assay remarks: DUSP6 inhibitors restoring Erk phosphorylation by chemical complementation, primary imaging in DUSP6-transfected HeLa (AID 609)
Experimental parameters: HeLa MKP-3 transfected, phospho-Erk imaging KS statistic; measured here: nuclear pErk red intensity z-score; at 10 µM; stronger effect = higher value; cells stimulated with TPA for 15 min
z-score values for the compounds below.

{"columns": ["Compound", "z-score"],
 "data": [
  ["CC(C)COc1ccc(C(=O)NC(CC(C)C)C(=O)O)cc1 (stereo unspecified)", 0.136],
  ["CN1CC2(C)CN(C(c3ccccc3)c3ccccc3)CC(C)(C1)C2O (stereo unspecified)", -1.37],
  ["CC1(C)C2CCC1(C)C(NC(=O)CCN1CCCCC1)C2 (stereo unspecified)", 0.463],
  ["CC(NC(=O)Nc1ncccn1)(C(F)(F)F)C(F)(F)F", -1.54],
  ["COC(=O)C(NC(=O)c1ccc(F)cc1)(Nc1nc(C)cs1)C(F)(F)F (stereo unspecified)", 0.98],
  ["CCN(CC)CCN1C(=O)C(=O)/C(=C(/O)c2c(C)[nH]c(C(=O)OC)c2C)C1c1cccc(OC)c1 (stereo unspecified)", -0.673]
]}

----------
Assay remarks: inhibitors of mutant huntingtin aggregation, primary screen, imaging, exon1htt(103Q)mCFP cells, high-content imaging (AID 483);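 further: compound exposure lasted 3 days before fixation; percent of the per-plate median nuclei count of sample wells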
Experimental parameters: exon1htt(103Q)mCFP cell line, aggregate imaging, at 2 µM; measured here: cell count, toxicity

{"columns": ["Compound", "Measurement units", "nuclei count"],
 "data": [
  ["CCC(C)(C)n1nnnc1C(c1cc2cc(OC)ccc2[nH]c1=O)N1CCc2ccccc21 (stereo unspecified)", "%", 100],
  ["CCOC(=O)c1ccc(S(=O)(=O)NC2CCCCCCC2)n1C", "%", 95.7],
  ["Cc1cccc2cc(C#N)c(SCCN3CCCCC3)nc12", "%", 108],
  ["CC1CCc2nn(CC(=O)NCCN3CCCCC3C)cc2C1 (stereo unspecified)", "%", 106],
  ["COc1ccc(NC(=O)CN2CCN(S(=O)(=O)c3ccc(Cl)cc3)CC2)cc1", "%", 123],
  ["Oc1c(C(c2ccccc2)N2CCc3ccccc3C2)sc2ncnn12 (stereo unspecified)", "%", 111],
  ["COc1cc2c(cc1NC(=O)COC(=O)Cn1cnc3ccccc31)oc1ccccc12", "%", 86.8],
  ["COc1cccc(-c2nc(CSCC(=O)N3CCc4ccccc43)c(C)o2)c1", "%", 108],
  ["CCN(CC)CCCNc1oc(-c2cccc(Cl)c2)nc1C#N", "%", 98.2],
  ["CN(c1ccc(OCc2nnc(-c3ccccc3)o2)cc1)S(=O)(=O)c1ccccc1", "%", 95],
  ["CCCCOc1ccccc1C1C(C(N)=O)=C(C)Nc2nnnn21 (stereo unspecified)", "%", 88.7]
]}
